Assay: protein stability index of a GFP-peptide fusion (yeast GPS) (PSI 1-4); higher = more stable; sorted into four equal gates, so the index is relative within each strain
Conditions: pdr5∆
protein stability index: recorded values
Value kind: protein stability index

1) AKNIISNVLDGNKNQFE [LRP1]	2.77
2) YVGNKRLELAGQLISLL [RET1]	3.25
3) ELLSMGNAKESKALLRE [SRP72]	2.81
4) PISISNAPTFNPKYDTS [YAR002W/NUP60]	3.08
5) KSFTNDKIPLNYAMTRN [SRB5]	2.55
6) TSALSELSGLISSAKLD [QCR2]	2
7) EDILQGIFNLLNTLFNP [NUT1]	2.35
8) TPAMIPYPGSPMHSIMP [DSN1]	2.67
9) EVESSDTIDNVKSKIQD [RPS31]	2.78
10) VEELPTFHDYDMVKLDI [RRP42]	2.75
11) SVAKIRFPETMDETQTR [RPO21]	3.34
12) KKECALLISYGVSIENE [SRB4]	1.9
13) NARKVVGASVVVVKNWG [RPS12]	2.69
14) PINLPPQIAQLPLATQQ [SNF5]	2.49

---

Assay: protein stability index of a GFP-peptide fusion (yeast GPS) (PSI 1-4); higher = more stable; sorted into four equal gates, so the index is relative within each strain
Conditions: ubr1∆
protein stability index: recorded values
Value kind: protein stability index

1. VNYRHFKAMEDVIAWKN [ITC1]	3.37
2. YGKLRNGMFCQVPSSLI [RRP4]	2
3. SWEEGTRQSSRNFDTHE [MCD1]	3.38
4. NTYKRLVIGIFKRDLLR [YJL039C/NUP192]	1.59
5. VPYVLMGQIATFIYFAY [COB]	1.28
6. TFSWLNAELLDYLFHLL [YLR018C/POM34]	1.4
7. KEVSSFLMGIFNSVVNL [MTR3]	3
8. NLRLLNSIDSTSRIELE [ECM29]	2.98
9. TEELQTQYATSQKTKTI [SMC2]	3.18
10. FEQDSHLRYQPDGVVVH [SNF6]	3.09
11. DMVKLDINPPLVFILAV [RRP42]	2.19
12. KCLNYRNVNWIERLTKR [ITC1]	3.09
13. ERLKQLTPNEIKELEHL [SWP82]	2.7
14. DDLIHFTLKQWNRLTIS [COR1]	1.33
15. ELISYRNESLKNNSSIR [SRB8]	3.05
16. HTEDEQIEKKKICRGRM [SIR4]	3.16
17. NHNQFECKGCDNKIDIY [RPB2]	3.1
18. AQAQAQAQAQAQAAQAA [GAL11]	3.15
19. LLNHGERAELETDEYIS [RPN1]	2.66
20. QQTEHETEIKDLTQLLE [SMC4]	3.34
21. RMLEEAIDHLKAELEKQ [YIL149C/MLP2]	3.12
22. IDDENITKLNKEIRAFD [SRB4]	3.38
23. QAQAQAQAQAQAQAQAQ [GAL11]	3.04
24. LKLSMADYNGALLRVTK [POP4]	2.52
25. KTNEESAKMILLSDPTI [PRP8]	2.92
26. QTLLANSDHAKFTIEPG [SNF2]	2.37
27. QMQQQQQAQAQAQAQAQ [GAL11]	1.97
28. LTHRLGGDTCSSDGALC [POP1]	3.19
29. GTPLQNNLHELWALLNF [ISW2]	2.76
30. VDPFDSDEEESVLDEQE [SNU114]	3.36
31. NRTVLLKIFKIFCIDLE [SRB8]	2.3
32. EMNLHVPQSEETRAELS [RPO21]	3.15
33. SLFQLSKLGKNLQTVHF [GRR1]	2.43
34. FMEAQGAGIQIIMQADL [FAS2]	2.11
35. KVLNEISKTTLTLDPRY [RPN3]	3.2
36. ERNNIGEICKNYELEKI [YDL116W/NUP84]	2.62
37. SQSRSAKAGLTFPVGRV [HTA1]	3.07
38. KPTVILKLLKENIIQME [FAS1]	1.1
39. ADINLEESIRESLQKRE [SIR3]	3.36
40. FHGTSTKANDKNESATI [FAS2]	2.91
41. KPDSDIVALSSEEINQY [PRE6]	3.17
42. ENRFQDTLLLLPTDGGL [POP4]	2.44
43. QFLYEKHYKNIPRNSPL [RPC82]	2.08
44. SVNFFVSLLKKNWQNVG [RPL1A]	1.46
45. YVKDARKDTVSREVLRY [RPC40]	3.21
46. STKKIQVATKYASLKLP [YMR129W/POM152]	1.92
47. TQKRTHVLKKNPLKNKQ [RPL4A]	2.99
48. KHHQLFYMLNAGIRPKF [RPN1]	1.98
49. PVENIWADIFAKALDGQ [RPP1A]	2.62
50. RCFENLQNKSFKSVLPI [UBP6]	2.45
51. FASLRVLPDADVKLLHS [YJL039C/NUP192]	2.14
52. CDEHMGLSLAGLAPDAR [PRE5]	2.76
53. APSGIRMHLAPASKQGY [SSN2]	2.36
54. NRMQISPDQMRNLQMGL [GRR1]	2.83
55. MILKLVCQVTKFGLLLQ [ECM29]	1.61
56. IKKFAKLHMGTEDVRLA [RPL31B]	2.73
57. HPAHVMWSVARAGQRGY [RPL3]	1.24
58. GVQSNGDQFLRYVNLLG [PRE4]	2.31
59. DHINGSGKRKPTKAAQR [GAL11]	3.17
60. LVLYDAENDVIEATDLG [BRR2]	3.24

---

Assay: protein stability index of a GFP-peptide fusion (yeast GPS) (PSI 1-4); higher = more stable; sorted into four equal gates, so the index is relative within each strain
Settings: pdr5∆
Overview of reported protein stability index across a group of sequences:
Value kind: protein stability index

1. DHINGSGKRKPTKAAQR [GAL11]	2.81
2. NLYHVTEDGWIYHGNHD [PRE2]	2.97
3. SRDKTIKVWTIKGQCLA [ASC1]	2.04
4. LTCLPVPPPPVRPSISF [RPO21]	2.44
5. FKHGPMSLINDAMVTRT [SMD2]	2.43
6. TPKITAAEKSFKPPKNK [SEC65]	3.14
7. IDKLSDVVMKATEPQMV [PRP8]	2.71
8. GALIHKAGLMTGGISGD [SMC1]	2.73
9. QFVSKLVDNLNAEVVAG [BRR2]	2.25
10. NSFIKANLPWLGKAQNW [RPN2]	2.6
11. ELEFIQSLANIQYVTYL [SOH1]	2.54
12. SVNPAMLPGSSNGGGKV [RPO31]	3.36
13. NTNNNNTNNNNNPANNT [SWI1]	3.35
14. RKCCNHPYLFEGAEPGP [ISW2]	3.11
15. SRSSVCVKAIEALFQSR [YCG1]	2.92
16. RRTNTPIGRDGKLAKPR [RPB2]	3.06
17. MSDPSSINGGIVVAMTG [PUP3]	2.39
18. QMQQQQQAQAQAQAQAQ [GAL11]	2.08
19. IPPPMPKNQQYRAFGSI [MED7]	2.31
20. HDISRYVRAKFLDYTTD [PRP8]	1.99
21. KSSGSSMATPTHSDSHE [ROX3]	2.97
22. NRTMDGKPVSLPLLYNF [FAS1]	3.31
23. IQSKAVEQGYEDAFNFW [YCG1]	3.33
24. IIELENINAKMETRINI [YIL149C/MLP2]	2.63
25. NKTDAQAPTTGFSFGSQ [YJL041W/NSP1]	2.98
26. DAGVTFNKEQLNKFKKA [ECM29]	2.13
27. ILKKSLMTSHTKGDTSK [RTT102]	3.05
28. YFKSILLNKNTGNNLYD [SWI1]	2.42
29. LRNNLNSLIEEINERSE [YCG1]	3.31
30. KKSKIQLLDIAEFKKEN [LIN1]	2.29
31. KWDITTRNSNNLAIVEL [BRR2]	2.83

---

Test: protein stability index of a GFP-peptide fusion (yeast GPS) (PSI 1-4); higher = more stable; sorted into four equal gates, so the index is relative within each strain
Details: pdr5∆
Value kind: protein stability index

1. HLKILASSNFPFLNETK [RPC82]	2.61
2. TSNWEIYKPLLFEIVSN [SRB8]	2.05
3. GTPLFTFGKKADVTSNI [YOR098C/NUP1]	1.92
4. FASLRVLPDADVKLLHS [YJL039C/NUP192]	2.11
5. DSTPEEVSCKLLETITY [YML103C/NUP188]	2.82
6. IKAPTVAADGKLVTYIV [YLR335W/NUP2]	1.92
7. KFILQILQILNLMILNT [YML103C/NUP188]	1.29
8. KARSPGIAKPNAIQTEV [SIR4]	3.35
9. DKNELQQMIITRLKSLL [SIR3]	2.04
10. VVDVALKYPELSIKNSF [NUT1]	2.94
11. TVLVIDNSEYSRNGDFP [RPN10]	2.73
12. RGTIPLLERYIGNLITR [PRP8]	1.55
13. QDVDFYKNLDRGFSKDL [RRP6]	3.75
14. WNLNQFQIEADFIGHNS [ASC1]	2.7
15. KNGKIYLKHNSIAEEIP [RET1]	2.81
16. LFPIVKKHGKTDYFLPK [YJL039C/NUP192]	2.66
17. ADINLEESIRESLQKRE [SIR3]	3.28
18. DQAIVTETKRLVVIRFG [DIB1]	2.23
19. TNSHLPAGKQVEISLVN [FAS1]	3.37
20. SDAEEEEGEYKNAANTE [ISW2]	3.44
21. GTPLQNNLHELWALLNF [ISW2]	2.55
22. KGALMYGPPGTGKTLLA [RPT5]	2.24
23. ATIRETYEIICDQTKSV [RRP43]	3
24. GKKLTDEINTAQDKWHL [RET1]	3.18
25. QDLNQRFQDPYVAIVVD [RRI1]	2.79
26. DQKETKKGESEKDASGK [YOR098C/NUP1]	3.37
27. DLEKLLEMSTEDFVKLA [RPS15]	3.13
28. KSLDKKIAKRRQVYKPV [POP3]	3.09
29. FTNPSIVKVFHGAFMDI [RRP6]	1.57
30. KEECQIEDDGIIESHLI [CSN9]	3.23
